# Experiment summary: yeast display, Sf9 membrane polyspecificity reagent, FACS + sequencing; frameworks hold sequencing errors

Residue string	polyreactivity (PSR sort gate)
QVQLVESGGGLVQAGGSLRLSCAASGSIFGLYAMGWYRQAPGKEREVFADITIGGSTYYADSVKGRFTISRDNAKNTVYLQMNSLKPEDTAVYYCASRPGSWYPSVPSYNYWGQGTQVTVSS	low polyreactivity
QVQLVESGGGLVQAGGSLRLSCAASGSTFYPYAMGWYRPAPGKERELVAAINWSGGTTYYADSVKGRFTISRDNAKNTVYLQMNSLKPVDTAVYYCAADGYPPGYGYWGQGTQVTVSS	low polyreactivity
QVQLVESGGGLVQAGGSLRLSSADSGRTFRYYAMRWYRPAPGKERELVAAITRGGRTNYADSVKGRFTISRDNAKNTVYLQMNSLKPEDTAVYYCAAVLYTPNKYASYYWGQGTQVTVSS	high polyreactivity
QVQLVESGGGLVQAGGSLRLSCAASGRTFYHYTMGWSSQAPGKERELVARITRRVGSTYYADSVKGRFTISRDNTKNTVYLQMNSLKPEDTAVYYCNAKSGVYRYLLDYWGQGTQVTVTS	high polyreactivity
KVQLVESGGGLVQAGGSLRLSCAASGRIFRYYAMGWSRQAPGKERELVAAISRGGGSTYYADSVKGRFTISRDNAKNTVYLQMNSLKPEDTAVYYCANSVGRGPIGYDYWGQGTQVTVSS	high polyreactivity
QVQLVESGGGLVQAGGSLRLSCAASGSTFYYYAMGWYRQAPGKERELVAAITKSGGSTYYADSVKGRFTISRDNAKNTVYLQMNSLKPEDTAVYYCAAYLRSGYKFDYWGQGTQVTVSS	low polyreactivity
QVQLVESGGGLLQAGGSLLLSCAASGSNFAYYAMGWYRQAPGKERELVAAITRGAGRTFYADSVKGRFTISRDNAKNTVYLQMNSLKQEDTAVYYCAADVSGSKYDYWGQGTQVTVSS	high polyreactivity
QVQLVESGGGLVQAGGSLRLSCAASGRIFVYYAMGWYRQAPGKERELVATISSGGSTYYADSVKGRFTISRDNAKNTVYLQMNSLKPEDTAVYYCAADNVIRYLAYYYKGDYWGQGTQVTVSS	low polyreactivity
QDQLVESGGGIVQAGGSLRLSCAASGRTFGINAMGWSRQAPGKERELVAVISCGDGGTYYADSVKWRFTISRDNAKNTVYLQMKSLKPEDTAVYYCSSEYQSTSLWGGHFVINPYDYWGQATQVTVSS	low polyreactivity
QVQLVESGGGIVQAGGSLRLSCAASGLTFYVYAMGWYREAPGKEREFVAAITWSGGSTYYADSVKGRFTISRDNAKNTVYLQMNSLKPEDTAVYYCAAETLWSELYYWGQGTQVTVSS	high polyreactivity
QVQLVESGGGLVKAGGSLRLSCGASGSIFDFYVMGWYRQAPGKERELVGAISSGGSTYYADSVKGRFTISRDNAKHTVYVQMNSLKPADTAVYYCAAYPEYVSGAWYDYWGQGTQVTVSS	low polyreactivity
